Experiment: Caco-2 membrane permeability, improved method as used in the following Examples (96-well, 20 to 24 h preincubation)
Format: in vitro ADME
Settings: human, Caco-2, Caco-2
Positions of bridges follow the written chain, without caps; N, C: chain ends. Non-standard residues stand in square brackets, D forms with d. Residues, ends and D or L forms follow the SMILES beside them. *: point of attachment. Glu(NHSO2Me) = CS(=O)(=O)NC(=O)CC[C@H](N)C(=O)O; hPhe(3-Cl) = N[C@@H](CCc1cccc(Cl)c1)C(=O)O; hNle(7,7-F2) = N[C@@H](CCCCC(F)F)C(=O)O; Hyp = O=C(O)[C@@H]1C[C@@H](O)CN1; NMeF = CN[C@@H](Cc1ccccc1)C(=O)O; NMeI = CC[C@H](C)[C@H](NC)C(=O)O; NMeL = CN[C@@H](CC(C)C)C(=O)O; dNMeL = CN[C@H](CC(C)C)C(=O)O; NMeNva = CCC[C@H](NC)C(=O)O; NMeV = CN[C@H](C(=O)O)C(C)C; NMeA = CN[C@@H](C)C(=O)O; Piperidide = C1CCN(*)CC1; NBuGly = CCCCNCC(=O)O; Sar = CNCC(=O)O
Each entry below carries its reported Papp A→B at 180 min.

Before answering, review these 2 worked examples.
CCC[C@H]1C(=O)N[C@@H](CC(C)C)C(=O)N(C)[C@@H](CC(C)C)C(=O)N[C@@H]([C@@H](C)O)C(=O)N2CCC[C@H]2C(=O)N(C)[C@@H](CC(C)C)C(=O)N[C@@H]([C@@H](C)CC)C(=O)N(C)[C@@H](CC(C)C)C(=O)N2C[C@H](OCC)C[C@H]2C(=O)N[C@H](C(=O)N2CCCCC2)CC(=O)N(C)[C@H](CC(C)C)C(=O)N1C [pd382] ([dNMeL][NMeNva]L[NMeL]TP[NMeL]I[NMeL][Hyp](Et)D-Piperidide; lactam N-11) ... 4.8 ×10⁻⁶ cm/s
CC[C@H](C)[C@H]1C(=O)N[C@@H]([C@@H](C)O)C(=O)N(C)CC(=O)N(C)[C@@H](CC(C)C)C(=O)N[C@H](C(=O)N2CCCCC2)CC(=O)N(C)[C@@H](C)C(=O)N[C@@H](CCCCC(F)F)C(=O)N(C)[C@@H](CC(C)C)C(=O)N(C)[C@@H](Cc2ccccc2)C(=O)N[C@@H](C(C)C)C(=O)N(C)[C@@H](Cc2ccccc2)C(=O)N1C [pd334] ([NMeA][hNle(7,7-F2)][NMeL][NMeF]V[NMeF][NMeI]T[Sar][NMeL]D-Piperidide; lactam N-11) ... 2.4 ×10⁻⁶ cm/s

molecule CCCCN1CC(=O)N(C)[C@@H](C(C)C)C(=O)N[C@H](C(=O)N2CCCCC2)CC(=O)N(C)[C@@H](CC(C)C)C(=O)N[C@@H](CCC(=O)NS(C)(=O)=O)C(=O)N(C)[C@@H](CC(C)C)C(=O)N(C)[C@@H](Cc2ccccc2)C(=O)N[C@@H](CC(C)C)C(=O)N(C)[C@@H](Cc2ccccc2)C(=O)N(C)[C@@H](CC(C)C)C(=O)N[C@@H]([C@@H](C)O)C1=O [pd62] ([NMeL][Glu(NHSO2Me)][NMeL][NMeF]L[NMeF][NMeL]T[NBuGly][NMeV]D-Piperidide; lactam N-11) , Papp A→B at 180 min observed: < 0.13 ×10⁻⁶ cm/s

Recorded result, CC(C)C[C@@H]1NC(=O)[C@H](CC(C)C)N(C)C(=O)CN(C)C(=O)[C@H]([C@@H](C)O)NC(=O)[C@H](CC(C)C)N(C)C(=O)[C@H](CCc2cccc(Cl)c2)NC(=O)[C@H](C)N(C)C(=O)[C@@H](C(C)C)NC(=O)C[C@@H](C(=O)N2CCCCC2)NC(=O)[C@H](C(C)C)N(C)C(=O)[C@H](Cc2ccccc2)N(C)C1=O [pd355] ([dV][NMeA][hPhe(3-Cl)][NMeL]T[Sar][NMeL]L[NMeF][NMeV]D-Piperidide; lactam N-11) , Papp A→B at 180 min: 2.3 ×10⁻⁶ cm/s

The value of Papp A→B at 180 min measured for the molecule CC[C@H](C)[C@H]1C(=O)N[C@@H]([C@@H](C)O)C(=O)N(C)CC(=O)N(C)[C@@H](C)C(=O)N[C@H](C(=O)N2CCCCC2)CC(=O)N(C)[C@@H](C)C(=O)N[C@@H](C(C)C)C(=O)N(C)[C@@H](CC(C)C)C(=O)N(C)[C@@H](Cc2ccccc2)C(=O)NC(COc2cccc(Cl)c2)C(=O)N(C)[C@@H](Cc2ccccc2)C(=O)N1C (some centres unmarked) turned out to be 1.8 ×10⁻⁶ cm/s
